Test system: Epidermal growth factor receptor (Homo sapiens), P00533 [L858R,T790M]
Sequence (P00533 whole entry T790M/L858R, looked up): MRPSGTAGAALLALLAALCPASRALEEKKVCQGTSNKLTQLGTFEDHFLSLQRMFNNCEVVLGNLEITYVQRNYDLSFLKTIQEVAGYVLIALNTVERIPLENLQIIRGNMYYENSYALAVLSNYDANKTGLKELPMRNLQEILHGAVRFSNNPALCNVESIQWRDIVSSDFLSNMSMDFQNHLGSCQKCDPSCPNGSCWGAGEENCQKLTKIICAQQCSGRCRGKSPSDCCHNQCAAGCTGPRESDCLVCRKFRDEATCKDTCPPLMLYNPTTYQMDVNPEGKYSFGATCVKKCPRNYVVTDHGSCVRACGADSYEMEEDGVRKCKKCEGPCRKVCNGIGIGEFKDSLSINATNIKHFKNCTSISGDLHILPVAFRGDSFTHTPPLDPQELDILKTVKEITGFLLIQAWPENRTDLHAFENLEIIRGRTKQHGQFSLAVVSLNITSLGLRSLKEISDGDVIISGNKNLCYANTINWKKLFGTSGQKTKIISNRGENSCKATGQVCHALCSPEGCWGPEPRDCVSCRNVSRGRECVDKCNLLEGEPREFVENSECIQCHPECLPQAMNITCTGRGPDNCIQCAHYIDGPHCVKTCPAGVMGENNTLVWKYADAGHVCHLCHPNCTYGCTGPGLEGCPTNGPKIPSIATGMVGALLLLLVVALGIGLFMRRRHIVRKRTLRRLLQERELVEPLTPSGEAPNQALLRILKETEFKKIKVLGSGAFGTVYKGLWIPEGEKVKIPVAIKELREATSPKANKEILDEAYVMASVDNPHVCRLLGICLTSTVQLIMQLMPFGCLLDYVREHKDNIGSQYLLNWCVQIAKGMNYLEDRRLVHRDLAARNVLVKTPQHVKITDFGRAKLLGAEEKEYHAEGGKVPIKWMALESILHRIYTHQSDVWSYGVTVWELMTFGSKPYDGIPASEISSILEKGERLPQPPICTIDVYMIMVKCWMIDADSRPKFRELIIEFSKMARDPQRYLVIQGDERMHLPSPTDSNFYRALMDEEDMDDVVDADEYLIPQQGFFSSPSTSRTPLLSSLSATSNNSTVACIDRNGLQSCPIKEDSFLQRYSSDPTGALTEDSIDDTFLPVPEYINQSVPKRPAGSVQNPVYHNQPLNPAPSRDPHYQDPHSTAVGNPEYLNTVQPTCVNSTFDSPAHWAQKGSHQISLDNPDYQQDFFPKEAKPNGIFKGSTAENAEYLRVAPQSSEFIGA
Conditions: at 0.1 µM
assayReadout: inhibition (%)
Report as a plain number; the unit % is understood.

Example cases with answers are listed next.
{"compound": "CCOc1nccc2c1nc(-c1nonc1N)n2CC", "unitName": "%", "inhibition": -0.04}
{"compound": "Cc1ccc(NC(=O)CC2CC2)cc1-c1ccc(C(=O)NCC2CC2)cc1", "unitName": "%", "inhibition": 0.02}
{"compound": "COc1cccc(-n2ncc3c(N/N=C/c4ccc(S(C)(=O)=O)cc4)ncnc32)c1", "unitName": "%", "inhibition": 0.79}

Prompt line: Which inhibition is reported for this compound? `NS(=O)(=O)c1ccc(NC=C2C(=O)Nc3ccc4ncsc4c32)cc1`
Response line: 3.17

Prompt line: Record: `CN(c1ccc(NC(=O)Nc2ccc(OC(F)(F)F)cc2)cc1)c1ccnc(Nc2cccc(S(N)(=O)=O)c2)n1`
Response line: 2.59

Prompt line: Record: CCCN1CCCC(c2ccc(Nc3nc(Nc4cc(F)ccc4C(N)=O)c4cc[nH]c4n3)c(OC)c2)C1 (centres undefined)
Response line: 55.5

Prompt line: Record: `CCn1c(-c2nonc2N)nc2c(C#CC(C)(C)O)nc(OCCNC)cc21`
Response line: -1.42

====

The following compounds are listed with their measured inhibition values.
Target: Tyrosine-protein kinase HCK (Homo sapiens) (UniProt P08631);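 note: values are averaged percent inhibition of HCK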
Sequence (P08631 2-526 limits assumed): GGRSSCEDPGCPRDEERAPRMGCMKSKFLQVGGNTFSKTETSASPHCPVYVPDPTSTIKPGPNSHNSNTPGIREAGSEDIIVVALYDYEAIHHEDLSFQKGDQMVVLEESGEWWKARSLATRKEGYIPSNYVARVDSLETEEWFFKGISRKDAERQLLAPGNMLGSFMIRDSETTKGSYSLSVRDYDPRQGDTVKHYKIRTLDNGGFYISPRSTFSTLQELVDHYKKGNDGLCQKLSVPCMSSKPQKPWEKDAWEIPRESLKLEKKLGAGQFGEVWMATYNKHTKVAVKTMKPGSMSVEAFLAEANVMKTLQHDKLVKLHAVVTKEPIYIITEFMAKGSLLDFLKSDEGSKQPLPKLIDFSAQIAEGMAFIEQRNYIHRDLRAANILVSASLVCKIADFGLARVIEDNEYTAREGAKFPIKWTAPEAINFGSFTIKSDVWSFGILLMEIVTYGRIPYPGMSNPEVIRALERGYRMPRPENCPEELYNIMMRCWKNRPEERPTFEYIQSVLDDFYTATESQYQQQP
Conditions: at 1 µM
Report as a plain number; the unit % is understood.

{"molecule": "Nc1ccc(C#Cc2cncnc2Nc2ccc(OCc3cccc(F)c3)c(Cl)c2)cc1", "assayReadout": "inhibition", "quantitativeReadout": 5.04}
{"molecule": "NS(=O)(=O)c1cccc(-c2cc3ccncc3cc2OCc2ccccc2)c1", "assayReadout": "inhibition", "quantitativeReadout": 11.1}
{"molecule": "CC(C)c1ccc(Nc2nccc(-c3cnn4ncccc34)n2)cc1", "assayReadout": "inhibition", "quantitativeReadout": 8.83}
{"molecule": "NS(=O)(=O)c1ccc(Nc2cc(-c3cccc(O)c3)n[nH]2)cc1", "assayReadout": "inhibition", "quantitativeReadout": 11.7}
{"molecule": "C[C@@H](Oc1cc(-n2cnc3ccc(OC[C@@H](O)CO)cc32)sc1C(N)=O)c1ccccc1Cl", "assayReadout": "inhibition", "quantitativeReadout": 6.39}

Prompt line: Which inhibition is reported for this compound? `C[C@@H](Oc1cc(-n2cnc3ccc(OCC4CCN(C)CC4)cc32)sc1C(N)=O)c1ccccc1C(F)(F)F`
Response line: 32.6

Prompt line: Record: `COc1cc2ncn(-c3cc(OCc4ccccc4S(C)(=O)=O)c(C#N)s3)c2cc1OC`
Response line: 61.8

Prompt line: Record: `CN(C)c1cc2c(Nc3ccc4c(cnn4Cc4ccccc4)c3)ncnc2cn1`
Response line: 19.9

Prompt line: Record: `CCS(=O)(=O)c1ccc(OC)c(Nc2ncc(-c3cccc(OC)c3)o2)c1`
Response line: 67.2

Prompt line: Record: `O=S(=O)(CCOCc1ccc(-c2ccc3ncnc(Nc4ccc(OCc5cccc(F)c5)c(Cl)c4)c3c2)o1)c1ccccc1`
Response line: 6.35

Prompt line: Record: `NS(=O)(=O)c1ccc(NC=C2C(=O)Nc3ccc4ncsc4c32)cc1`
Response line: 43.8

====

Target: SRSF protein kinase 1 (Homo sapiens);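 note: values are mean percent inhibition of SRPK1 kinase, measured in the GSK PKIS screening panel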
Conditions: at 0.1 µM
The following compounds are listed with their measured inhibition values.

Example cases with answers are listed next.
{"molecule": "CCn1c(-c2nonc2N)nc2ccc(F)cc21", "inhibition": "-1.22%"}
{"molecule": "CCS(=O)(=O)c1ccc(OC)c(Nc2ncc(-c3cccc(OC)c3)o2)c1", "inhibition": "-1.9%"}

Prompt line: Which inhibition is reported for this compound? `C[C@@H](Oc1cc(-n2cnc3ccc(OCC4CCN(C)CC4)cc32)sc1C(N)=O)c1ccccc1C(F)(F)F`
Response line: -0.56%

Prompt line: Record: `Cc1nc(-c2ccccc2)n2nc(NCCCN3CCOCC3)ncc12`
Response line: -2.28%
